test system: Viola tricolor; assay: Post-emergence herbicidal action, greenhouse, 320 g/ha; assay type: in vivo; details: application rate 320 g/ha, rated visually after about 3 weeks vs untreated controls
quantity: Viola tricolor (efficacy in %)
Please answer in the form of a number followed by its unit of measurement.

CN1CCC(OC(=O)C(C)(C)C)N(c2cc(C(C)(C)C)on2)C1=O (centres unmarked)	100%
CCC(=O)OC1CCN(C)C(=O)N1c1cc(C(C)(C)C)on1 (centres unmarked)	100%
CCCC(=O)OC1CCN(C)C(=O)N1c1cc(C(C)(C)C)on1 (centres unmarked)	90%
CC(C)CC(=O)OC1CCN(C)C(=O)N1c1cc(C(C)(C)C)on1 (centres unmarked)	100%

State the recorded Viola tricolor (efficacy in %) for this entry: CCC(=O)OC1CC2CCCN2C(=O)N1c1cc(C(C)(C)C)on1 (centres unmarked)
100%

----------
tested on: Abutilon theophrasti; assay: Pre-emergence herbicidal action, greenhouse, 320 g/ha; type: in vivo; details: application rate 320 g/ha, scored visually after about 3 weeks vs untreated controls
For each of the compounds below, state its Abutilon theophrasti (efficacy in %).
Give bare numbers, in %.

C=CCC(C)(C)c1cc(N2C(=O)N(C)CCC2O)no1 (stereo not drawn)	100
CC(=O)OC1CC2CCCN2C(=O)N1c1cc(C(C)(C)C)on1 (stereo not drawn)	100
CCC(=O)OC1CCN(C)C(=O)N1c1cc(C(C)(C)C)on1 (stereo not drawn)	100
CN1CC(F)(F)C(O)N(c2cc(C(C)(C)C)on2)C1=O (stereo not drawn)	90
CC(=O)OC1CCN(C)C(=O)N1c1cc(C(C)(C)C)on1 (stereo not drawn)	100
CC(=O)OC1CCN(C)C(=O)N1C1=NOC(C)(C)C1 (stereo not drawn)	80

Hello, I would appreciate it if you could give Abutilon theophrasti (efficacy in %) for each entry below.
1. CN1CCC(O)N(c2cc(C(F)(F)F)ncn2)C1=O (stereo not drawn)
2. CN1CCC(O)N(c2noc(C(C)(C)C)c2F)C1=O (stereo not drawn)
3. CCCC(=O)OC1CCN(C)C(=O)N1c1cc(C(C)(C)C)on1 (stereo not drawn)

80
90
100

----------
For each of the molecules below, state its Stellaria media.
system: Stellaria media; test: Herbicidal pre-emergence action (Part 2), 1280 g/ha; format: in vivo; conditions: application rate 1280 g/ha, scored visually after about 3 weeks, Table D8

CCCC(=O)OC1CC(C)N(C)C(=O)N1c1cc(C(F)(F)F)ccn1 (centres unmarked)	100%
CC(=O)OC1CC(C)N(C)C(=O)N1c1cc(C(C)(C)C)on1 (mixture of isomers)	100%
CC(C)C(=O)OC1CCN(C)C(=O)N1c1cc(C(C)(C)C)no1 (centres unmarked)	100%
CCC(=O)OC1CCN(C)C(=O)N1c1cc(C(F)(F)F)c(Cl)cn1 (centres unmarked)	100%

// moving on: another record for Stellaria media
State the recorded Stellaria media for this entry: CC(=O)OC1N(c2cc(C(C)(C)C)on2)C(=O)N(C)CC1(C)C (centres unmarked)
100%

----------
tested on: Echinochloa crus-galli; assay: Herbicidal pre-emergence action (Part 2), 1280 g/ha; assay type: in vivo; settings: application rate 1280 g/ha, scored visually after about 3 weeks, Table D1
For each of the compounds below, state its Echinochloa crus-galli.
Answers are plain numbers, in %.

Consider the reported Echinochloa crus-galli for these compounds:
CCCC(=O)OC1N(c2cc(C(C)(C)C)on2)C(=O)N(C)CC1(C)C (stereo not shown) [I.66-162]	90
CC(C)C(=O)OC1CCN(C)C(=O)N1c1cc(C(C)(C)C)no1 (stereo not shown) [I.5-290]	90
CC(C)(C)c1cc(N2C(=O)N3CCCC3CC2O)no1 (stereo not shown) [I.121-162]	100

// moving on: another record for Echinochloa crus-galli
State the recorded Echinochloa crus-galli for this entry: CN1CCC(O)N(c2cc(C(C)(C)C)no2)C1=O (stereo not shown) [I.1-290]
90

----------
For each of the compounds below, state its Veronica persica (efficacy in %).
test system: Veronica persica; assay: Pre-emergence herbicidal action, greenhouse, 320 g/ha; type: in vivo; conditions: application rate 320 g/ha, Table B13
Numbers only, in %.

Consider the reported Veronica persica (efficacy in %) for these compounds:
CN1CCC(OC(=O)C(C)(C)C)N(c2cc(C(C)(C)C)on2)C1=O (stereo not shown)	100
CC(C)CC(=O)OC1CCN(C)C(=O)N1c1cc(C(C)(C)C)on1 (stereo not shown)	80
CC(=O)OC1CCN(C)C(=O)N1c1cc(C(C)(C)C)on1 (stereo not shown)	90

// moving on: another record for Veronica persica (efficacy in %)
State the recorded Veronica persica (efficacy in %) for this entry: CCC(=O)OC1CCN(C)C(=O)N1c1cc(C(C)(C)C)on1 (stereo not shown)
100

----------
tested on: Alopecurus myosuroides; test: Pre-emergence herbicidal action, greenhouse, 320 g/ha; assay type: in vivo; conditions: application rate 320 g/ha, scored visually after about 3 weeks vs untreated controls
quantity: Alopecurus myosuroides (efficacy in %)
Give bare numbers, in %.

CC(=O)OC1CCN(C)C(=O)N1C1=NOC(C)(C)C1 (stereo not shown) [I.2-709]	90
CN1CCC(O)N(c2noc(C(C)(C)C)c2F)C1=O (stereo not shown) [I.1-206]	80
CCC(=O)OC1CCN(C)C(=O)N1c1cc(C(C)(C)C)on1 (stereo not shown) [I.3-162]	80
CN1CCC(O)N(c2cc(C(C)(C)C)on2)C1=O (stereo not shown) [I.1-162]	90
CN1CCC(OC(=O)C(C)(C)C)N(c2cc(C(C)(C)C)on2)C1=O (stereo not shown) [I.6-162]	90

Hello, I would appreciate it if you could give Alopecurus myosuroides (efficacy in %) for each entry below.
1. CN1CCC(O)N(C2=NOC(C)(C)C2)C1=O (stereo not shown) [I.1-709]
2. C=CCC(C)(C)c1cc(N2C(=O)N(C)CCC2O)no1 (stereo not shown) [I.1-199]
3. CC(=O)OC1CCN(C)C(=O)N1c1cc(C(C)(C)C)on1 (stereo not shown) [I.2-162]
4. CC(C)CC(=O)OC1CCN(C)C(=O)N1c1cc(C(C)(C)C)on1 (stereo not shown) [I.7-162]

1. 100
2. 90
3. 90
4. 90

API: value(readout= Alopecurus myosuroides (efficacy in %), system= Alopecurus myosuroides, query= CN1CCC(O)N(c2cc(C(F)(F)F)ccn2)C1=O (stereo not shown) [I.1-449] )
100

----------
For each of the molecules below, state its Pharbitis purpurea (efficacy in %).
tested on: Pharbitis purpurea; test: Post-emergence herbicidal action, greenhouse, 320 g/ha; format: in vivo; conditions: application rate 320 g/ha, rated visually after about 3 weeks vs untreated controls

CC(C)(C)c1cc(N2C(=O)N3CCCC3CC2O)no1 (stereo not drawn)	80%
CC(=O)OC1CC2CCCN2C(=O)N1c1cc(C(C)(C)C)on1 (stereo not drawn)	80%

State the recorded Pharbitis purpurea (efficacy in %) for this entry: CC(C)CC(=O)OC1CCN(C)C(=O)N1c1cc(C(C)(C)C)on1 (stereo not drawn)
100%

----------
tested on: Hordeum murinum; assay: Post-emergence herbicidal action, greenhouse, 320 g/ha; format: in vivo; details: application rate 320 g/ha, rated visually after about 3 weeks vs untreated controls
quantity: Hordeum murinum (efficacy in %)
Give bare numbers, in %.

Hello, I would appreciate it if you could give Hordeum murinum (efficacy in %) for each entry below.
1. CC(=O)OC1CC(C)N(C)C(=O)N1c1cc(C(C)(C)C)on1 (mixture of isomers)
2. CN1CCC(OC(=O)C(C)(C)C)N(c2cc(C(C)(C)C)on2)C1=O (stereo not shown)
3. CC(C)CC(=O)OC1CCN(C)C(=O)N1c1cc(C(C)(C)C)on1 (stereo not shown)
4. CCC(=O)OC1CCN(C)C(=O)N1c1cc(C(C)(C)C)on1 (stereo not shown)

1. 90
2. 90
3. 80
4. 90

----------
system: Echinochloa crus-galli; assay: Herbicidal pre-emergence action (Part 2), 1280 g/ha; assay type: in vivo; conditions: application rate 1280 g/ha, scored visually after about 3 weeks, Table D1
For each of the molecules below, state its Echinochloa crus-galli.
Numbers only, in %.

Consider the reported Echinochloa crus-galli for these molecules:
CC(C)C(=O)OC1CCN(C)C(=O)N1c1cc(C(C)(C)C)on1 (stereo not drawn) [I.5-162]	100
CCCC(=O)OC1CC2CCCN2C(=O)N1c1cc(C(C)(C)C)on1 (stereo not drawn) [I.126-162]	100
CC1CC(O)N(c2cc(C(C)(C)C)on2)C(=O)N1C (stereo not drawn) [I.41-162]	100
CC(=O)OC1N(c2cc(C(C)(C)C)on2)C(=O)N(C)CC1(C)C (stereo not drawn) [I.62-162]	90
CC(=O)OC1CCN(C)C(=O)N1c1cc(C(C)(C)C)no1 (stereo not drawn) [I.2-290]	90

Hello, I would appreciate it if you could give Echinochloa crus-galli for each entry below.
1. CCC(=O)OC1CC2CCCN2C(=O)N1c1cc(C(C)(C)C)on1 (stereo not drawn) [I.123-162]
2. CC(=O)OC1CC(C)N(C)C(=O)N1c1cc(C(C)(C)C)on1 (mixture of isomers) [I.42-162]
3. CCCC(=O)OC1CC(C)N(C)C(=O)N1c1cc(C(F)(F)F)ccn1 (stereo not drawn) [I.44-449]
4. CCC(=O)OC1CCN(C)C(=O)N1c1cc(C(F)(F)F)c(Cl)cn1 (stereo not drawn) [I.3-451]

1: 100; 2: 100; 3: 100; 4: 100
